Where a name gives a salt, the structure may show the parent alone.
This section presents compounds with their documented melting point values.

>  <compound>
O=C(CCCCCS(=O)(=O)N(Cc1ccccc1)c1ccccc1)NO

>  <melting point>
129 to 129.5 °C

$$$$
>  <compound>
O=C(CCCCCNS(=O)(=O)c1cccnc1)NO (as salt: oxalate)

>  <melting point>
132 to 134 °C

$$$$
>  <compound>
O=C(CCCCCNS(=O)(=O)c1ccccc1)NO

>  <melting point>
80 to 82 °C

$$$$
>  <compound>
O=C(/C=C/c1ccc(S(=O)(=O)Nc2ccc3ccccc3c2)cc1)NO

>  <melting point>
198.5 to 199.5 °C

$$$$
>  <compound>
O=C(/C=C/c1cccc(S(=O)(=O)Nc2cccc(Br)c2)c1)NO

>  <melting point>
135.5 to 136.5 °C

$$$$
>  <compound>
O=C(CCCCCCCS(=O)(=O)Nc1ccccc1)NO

>  <melting point>
87 to 88 °C

$$$$
>  <compound>
O=C(CCCCCS(=O)(=O)Nc1ccccc1)NO [PX117234, 6-(Anilinosulfonyl)-N-hydroxyhexanamide]

>  <melting point>
97 to 98 °C

$$$$
>  <compound>
O=C(/C=C/c1cccc(S(=O)(=O)Nc2ccc(OC(F)F)cc2)c1)NO

>  <melting point>
91 to 93 °C

$$$$
>  <compound>
CN(c1ccccc1)S(=O)(=O)c1ccccc1/C=C/C(=O)NO

>  <melting point>
144.5 to 145.5 °C

$$$$
>  <compound>
O=C(CCCCCNS(=O)(=O)/C=C/c1ccccc1)NO

>  <melting point>
107 to 109 °C

$$$$

###

Tested on: JURKAT human T-cell line
Experiment: Secondary assay: cell proliferation WST-1, Jurkat
Type: cell-based
Conditions: Homo sapiens, Table 2, 48 h, read-out: Cell Proliferation Inhibition WST-1 (IC50 unless otherwise specified) Jurkat
pIC50: −log10 of the molar value.
This section presents molecules with their documented pIC50 values.

>  <smiles_notation>
O=C(/C=C/c1ccc(S(=O)(=O)Nc2ccc(Br)cc2)cc1)NO

>  <value_relation_sign>
=

>  <pIC50>
6.29

$$$$
>  <smiles_notation>
O=C(/C=C/c1cccc(S(=O)(=O)Nc2cccc(Br)c2)c1)NO

>  <value_relation_sign>
=

>  <pIC50>
7.10

$$$$
>  <smiles_notation>
O=C(/C=C/C#Cc1ccc(S(=O)(=O)Nc2ccccc2)cc1)NO

>  <value_relation_sign>
=

>  <pIC50>
5.96

$$$$
>  <smiles_notation>
O=C(/C=C/c1cccc(S(=O)(=O)Nc2ccc(Cl)cc2)c1)NO

>  <value_relation_sign>
=

>  <pIC50>
6.60

$$$$
>  <smiles_notation>
O=C(/C=C/c1cccc(S(=O)(=O)Nc2cccc3ccccc23)c1)NO

>  <value_relation_sign>
=

>  <pIC50>
6.82

$$$$
>  <smiles_notation>
COc1cc(CNS(=O)(=O)c2cccc(/C=C/C(=O)NO)c2)cc(OC)c1OC

>  <value_relation_sign>
<

>  <pIC50>
5.00

$$$$
